Form field: Selectivity ratio (one value per entry).
- Organism: Homo sapiens
- Assay Notes: Selectivity ratio of Ki for KOR (unknown origin) to Ki for MOR (unknown origin)
Observation Type: Selectivity ratio

• COc1cccc(C2(O)CCN(C(=O)Cc3cccc([N+](=O)[O-])c3)CC2CN(C)C)c1 (stereo not given) = 23.2
• COc1cccc(C2(O)CCN(C(=O)C3(c4ccccc4)CCC3)CC2CN(C)C)c1 (stereo not given) = 0.9
• CN(C)CC1CN(C(=O)Cc2ccc(OC(F)(F)F)cc2)CCC1(O)c1cccc(O)c1 (stereo not given) = 2.1
• CN(C)CC1CN(C(=O)Cc2ccccc2)CCC1(O)c1ccccc1 (stereo not given) = 45.4
• COc1cccc(C2(O)CCN(CCc3cccc(C(F)(F)F)c3)CC2CN(C)C)c1 (stereo not given) = 16.2
• COc1cccc(C2(O)CCN(C(=O)Cc3ccc(Cl)c(Cl)c3)CC2CN(C)C)c1 (stereo not given) = 4.2
• CN(C)CC1CN(C(=O)CCc2ccccc2C(F)(F)F)CCC1(O)c1cccc(O)c1 (stereo not given) = 42
• COc1cccc(C2(O)CCN(C(=O)Cc3cccc(Cl)c3)CC2CN(C)C)c1 (stereo not given) = 41.7
• CN(C)CC1CN(C(=O)Cc2ccccc2F)CCC1(O)c1cccc(O)c1 (stereo not given) = 59
• COc1cccc(C2(O)CCN(C(=O)Cc3cc(C(F)(F)F)cc(C(F)(F)F)c3)CC2CN(C)C)c1 (stereo not given) = 175
• CN(C)CC1CN(C(=O)CCc2cccc(C(F)(F)F)c2)CCC1(O)c1cccc(O)c1 (stereo not given) = 40300
• COc1cccc(C2(O)CCN(C(=O)Cc3c[nH]c4ccccc34)CC2CN(C)C)c1 (stereo not given) = 26.8
• Cc1ccc(CC(=O)N2CCC(O)(c3cccc(O)c3)C(CN(C)C)C2)cc1 (stereo not given) = 40.8
• CN(C)CC1CN(C(=O)Cc2cc(F)c(F)cc2F)CCC1(O)c1cccc(O)c1 (stereo not given) = 32.1
• Cc1ccccc1CC(=O)N1CCC(O)(c2cccc(O)c2)C(CN(C)C)C1 (stereo not given) = 15
• CN(C)C[C@@H]1CN(C(=O)Cc2cc(F)c(F)cc2F)CC[C@@]1(O)c1cccc(O)c1 = 70.5
• CN(C)CC1CN(C(=O)Cc2cccc(OC(F)(F)F)c2)CCC1(O)c1cccc(O)c1 (stereo not given) = 33.6
• CN(C)CC1CN(C(=O)Cc2ccccc2Cl)CCC1(O)c1cccc(O)c1 (stereo not given) = 30.5
• CN(C)C[C@H]1CN(C(=O)Cc2cc(F)c(F)cc2F)CC[C@]1(O)c1cccc(O)c1 = 0.8

---

- Target: UniProt P35372
- Sequence (P35372 whole entry): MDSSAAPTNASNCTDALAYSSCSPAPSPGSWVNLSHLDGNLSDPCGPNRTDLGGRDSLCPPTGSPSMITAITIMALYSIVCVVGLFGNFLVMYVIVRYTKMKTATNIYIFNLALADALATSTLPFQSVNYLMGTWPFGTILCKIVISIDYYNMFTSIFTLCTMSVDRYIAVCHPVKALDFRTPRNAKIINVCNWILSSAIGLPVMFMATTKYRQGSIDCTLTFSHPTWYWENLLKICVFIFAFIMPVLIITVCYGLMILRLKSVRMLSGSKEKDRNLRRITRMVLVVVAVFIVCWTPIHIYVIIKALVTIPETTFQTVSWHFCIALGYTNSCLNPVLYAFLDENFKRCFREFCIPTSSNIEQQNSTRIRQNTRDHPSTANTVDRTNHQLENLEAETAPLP
- Assay Notes: Agonist activity at MOR (unknown origin) expressed in CHO cell membranes assessed as stimulation of [35S]GTPgammaS binding measured after 60 mins by liquid scintillation counting analysis
Cut-off 9 nM on EC50: below means true (1), at or above means false (0).

• CN(C)CC1CN(C(=O)Cc2ccc(Cl)cc2)CCC1(O)c1cccc(O)c1 (stereo not given) = true (1)
• CN(C)C[C@@H]1CN(C(=O)Cc2cc(F)c(F)cc2F)CC[C@@]1(O)c1cccc(O)c1 = false (0)
• CN(C)C[C@H]1CN(C(=O)Cc2cc(F)c(F)cc2F)CC[C@]1(O)c1cccc(O)c1 = false (0)
• CN(C)CC1CN(C(=O)Cc2ccc(F)cc2)CCC1(O)c1cccc(O)c1 (stereo not given) = true (1)
• CN(C)CC1CN(C(=O)Cc2cccc(Cl)c2)CCC1(O)c1cccc(O)c1 (stereo not given) = true (1)
• CN(C)CC1CN(CCc2cccc(C(F)(F)F)c2)CCC1(O)c1cccc(O)c1 (stereo not given) = true (1)
• CN(C)CC1CN(C(=O)CCc2cccc(C(F)(F)F)c2)CCC1(O)c1cccc(O)c1 (stereo not given) = true (1)
• Cc1ccc(CC(=O)N2CCC(O)(c3cccc(O)c3)C(CN(C)C)C2)cc1 (stereo not given) = true (1)
• CN(C)CC1CN(C(=O)Cc2cc(F)c(F)cc2F)CCC1(O)c1cccc(O)c1 (stereo not given) = false (0)
• CN(C)CC1CN(C(=O)Cc2ccccc2Cl)CCC1(O)c1cccc(O)c1 (stereo not given) = false (0)

---

- Target: UniProt P41145
- Assay Notes: Agonist activity at KOR (unknown origin) expressed in CHO cell membranes assessed as stimulation of [35S]GTPgammaS binding measured after 60 mins by liquid scintillation counting analysis relative to control
- Recorded Conditions: filed as agonist
The entries below come with measured Emax values attached.
Observation Type: Emax (%)

- CN(C)CC1CN(C(=O)Cc2cc(F)c(F)cc2F)CCC1(O)c1cccc(O)c1 (stereo unspecified): 227
- CN(C)CC1CN(CCc2cccc(C(F)(F)F)c2)CCC1(O)c1cccc(O)c1 (stereo unspecified): 168
- CN(C)CC1CN(C(=O)CCc2cccc(C(F)(F)F)c2)CCC1(O)c1cccc(O)c1 (stereo unspecified): 172
- CN(C)C[C@@H]1CN(C(=O)Cc2cc(F)c(F)cc2F)CC[C@@]1(O)c1cccc(O)c1: 216
- CN(C)C[C@H]1CN(C(=O)Cc2cc(F)c(F)cc2F)CC[C@]1(O)c1cccc(O)c1: 215
- CN(C)CC1CN(C(=O)Cc2cccc(Cl)c2)CCC1(O)c1cccc(O)c1 (stereo unspecified): 160

---

// Emax lookup, one value per entry
- Target: Delta-type opioid receptor (Homo sapiens)
- Sequence (P41143 whole entry): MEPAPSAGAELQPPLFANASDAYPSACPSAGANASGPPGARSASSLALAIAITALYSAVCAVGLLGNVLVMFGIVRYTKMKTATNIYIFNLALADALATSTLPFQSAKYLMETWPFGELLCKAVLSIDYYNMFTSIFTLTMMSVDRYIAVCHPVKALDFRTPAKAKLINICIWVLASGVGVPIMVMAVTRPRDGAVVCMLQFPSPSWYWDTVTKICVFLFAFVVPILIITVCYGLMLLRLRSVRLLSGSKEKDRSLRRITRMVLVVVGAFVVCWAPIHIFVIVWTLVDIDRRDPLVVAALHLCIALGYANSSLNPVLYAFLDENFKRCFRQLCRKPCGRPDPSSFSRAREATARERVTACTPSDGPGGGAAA
- Assay Notes: Agonist activity at DOR (unknown origin) expressed in CHO cell membranes assessed as stimulation of [35S]GTPgammaS binding measured after 60 mins by liquid scintillation counting analysis relative to control
- Recorded Conditions: filed as agonist
Observation Type: Emax (%)

• CN(C)CC1CN(C(=O)Cc2ccccc2Cl)CCC1(O)c1cccc(O)c1 (centres undefined) = 240
• CN(C)CC1CN(C(=O)Cc2cc(F)c(F)cc2F)CCC1(O)c1cccc(O)c1 (centres undefined) = 289
• CN(C)C[C@@H]1CN(C(=O)Cc2cc(F)c(F)cc2F)CC[C@@]1(O)c1cccc(O)c1 = 216
• Cc1ccc(CC(=O)N2CCC(O)(c3cccc(O)c3)C(CN(C)C)C2)cc1 (centres undefined) = 228

---

- Target: Kappa-type opioid receptor (Homo sapiens)
- Sequence (P41145 whole entry): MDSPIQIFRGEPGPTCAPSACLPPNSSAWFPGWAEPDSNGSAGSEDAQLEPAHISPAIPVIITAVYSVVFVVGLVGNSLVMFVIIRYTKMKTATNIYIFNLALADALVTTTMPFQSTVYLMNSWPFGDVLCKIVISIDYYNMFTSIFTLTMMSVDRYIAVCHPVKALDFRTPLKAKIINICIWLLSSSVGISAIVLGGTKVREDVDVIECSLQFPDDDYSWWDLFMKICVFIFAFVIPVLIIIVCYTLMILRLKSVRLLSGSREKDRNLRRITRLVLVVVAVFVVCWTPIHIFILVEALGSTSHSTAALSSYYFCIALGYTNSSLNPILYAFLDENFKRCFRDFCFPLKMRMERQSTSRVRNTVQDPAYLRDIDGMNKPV
- Assay Notes: Inhibition of human KOR expressed in CHO cell membrane assessed as inhibition relative to control
- Type: cell-based
- Parameters: concentration or dose not given beside the values
- Recorded Conditions: concentration not given here
Observation Type: inhibition (%)

* COc1cccc(C2(O)CCN(C(=O)Cc3ccccc3Cl)CC2CN(C)C)c1 (centres undefined) | 34.8
* COc1cccc(C2(O)CCN(C(=O)Cc3ccccc3)CC2CN(C)C)c1 (centres undefined) | 23.4
* COc1cccc([C@]2(O)CCN(C(=O)Cc3cc(F)c(F)cc3F)C[C@H]2CN(C)C)c1 | 33
* COc1cccc([C@@]2(O)CCN(C(=O)Cc3cc(F)c(F)cc3F)C[C@@H]2CN(C)C)c1 | 23.4

---

- Species on record: Homo sapiens
- Assay Notes: Selectivity ratio of Ki for KOR (unknown origin) to Ki for MOR (unknown origin)
Observation Type: Selectivity ratio

• COc1cccc(C2(O)CCN(C(=O)Cc3ccc4ccccc4c3)CC2CN(C)C)c1 (stereo not given) = 32.5
• CN(C)CC1CN(CCc2cccc(C(F)(F)F)c2)CCC1(O)c1cccc(O)c1 (stereo not given) = 2320
• COc1cccc(C2(O)CCN(C(=O)Cc3cccc(F)c3)CC2CN(C)C)c1 (stereo not given) = 28.6
• COc1cccc(C2(O)CCN(C(=O)Cn3ccc4ccccc43)CC2CN(C)C)c1 (stereo not given) = 55.6
• CN(C)CC1CN(C(=O)Cc2ccc(Cl)cc2)CCC1(O)c1cccc(O)c1 (stereo not given) = 28.7
• COc1cccc(C2(O)CCN(C(=O)Cc3cccc4ccccc34)CC2CN(C)C)c1 (stereo not given) = 4.8
• CN(C)CC1CN(C(=O)Cc2cccc(Cl)c2)CCC1(O)c1cccc(O)c1 (stereo not given) = 98.5
• CN(C)CC1CN(C(=O)Cc2ccccc2)CCC1(O)c1cccc(O)c1 (stereo not given) = 28.2
• Cc1cccc(CC(=O)N2CCC(O)(c3cccc(O)c3)C(CN(C)C)C2)c1 (stereo not given) = 7.6

---

- Tested on: Mus musculus
- Assay Notes: Antinociceptive activity in CD-1 mouse at 10 mg/kg, ip
- Type: functional
Assign label 1 whenever MPE does not fall below 20%; assign label 0 whenever it does.

• COc1cccc(C2(O)CCN(C(=O)Cc3ccccc3)CC2CN(C)C)c1 (stereo not drawn) = label 1
• COc1cccc(C2(O)CCN(C(=O)C3(c4ccccc4)CCCCC3)CC2CN(C)C)c1 (stereo not drawn) = label 1
• COc1cccc(C2(O)CCN(C(=O)Cc3cc(C(F)(F)F)cc(C(F)(F)F)c3)CC2CN(C)C)c1 (stereo not drawn) = label 0
• COc1cccc(C2(O)CCN(C(=O)Cc3ccccc3Cl)CC2CN(C)C)c1 (stereo not drawn) = label 0
• COc1cccc(C2(O)CCN(C(=O)Cc3cccc(C(F)(F)F)c3)CC2CN(C)C)c1 (stereo not drawn) = label 1
• COc1cccc(C2(O)CCN(C(=O)Cc3cc(F)c(F)cc3F)CC2CN(C)C)c1 (stereo not drawn) = label 1
• COc1cccc(C2(O)CCN(C(=O)Cn3cnnn3)CC2CN(C)C)c1 (stereo not drawn) = label 0
• COc1cccc(C2(O)CCN(C(=O)Cc3ccc4ccccc4c3)CC2CN(C)C)c1 (stereo not drawn) = label 0
